For each entry below, report its inhibition value.
- assay-system: Serine/threonine-protein kinase Chk1 (Homo sapiens) (UniProt O14757);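 further: reported figure is the mean percent inhibition of CHEK1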
- Sequence (O14757 whole entry): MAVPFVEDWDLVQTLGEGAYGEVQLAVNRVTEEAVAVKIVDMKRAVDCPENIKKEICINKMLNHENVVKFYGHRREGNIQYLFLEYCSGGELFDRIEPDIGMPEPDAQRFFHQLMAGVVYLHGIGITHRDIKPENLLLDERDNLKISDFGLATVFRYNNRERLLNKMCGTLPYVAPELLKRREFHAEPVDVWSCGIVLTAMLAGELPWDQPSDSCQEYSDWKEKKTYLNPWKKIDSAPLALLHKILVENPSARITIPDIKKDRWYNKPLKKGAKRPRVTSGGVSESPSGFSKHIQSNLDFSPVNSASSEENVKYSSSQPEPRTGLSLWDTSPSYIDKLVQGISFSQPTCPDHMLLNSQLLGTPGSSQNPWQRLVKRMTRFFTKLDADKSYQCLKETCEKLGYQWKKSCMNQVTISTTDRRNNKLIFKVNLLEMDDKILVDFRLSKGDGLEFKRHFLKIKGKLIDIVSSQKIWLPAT
- measurement-conditions: at 0.1 µM
Give the value, in units of %, as a plain number.

Param item = NS(=O)(=O)c1cccc(-c2cc3ccncc3cc2OCc2ccccc2)c1 ; retrieve measured inhibition.
5.29

Param item = COc1cccc(-n2nc(C)c3c(N/N=C(\C)c4ccncc4)ncnc32)c1 ; retrieve measured inhibition.
0.24

Param item = CN(C)c1cc2c(Nc3ccc4c(cnn4Cc4ccccc4)c3)ncnc2cn1 ; retrieve measured inhibition.
2.49

Param item = Nc1nccc(C#Cc2cncnc2Nc2ccc(OCc3cccc(F)c3)c(Cl)c2)n1 ; retrieve measured inhibition.
1.22

Param item = NS(=O)(=O)c1ccc(-c2cc3ccncc3cc2OCc2ccccc2)cc1 ; retrieve measured inhibition.
0.26

====

- assay-system: Serine/threonine-protein kinase SIK2 (Homo sapiens) (UniProt Q9H0K1)
- Sequence (Q9H0K1 whole entry, looked up): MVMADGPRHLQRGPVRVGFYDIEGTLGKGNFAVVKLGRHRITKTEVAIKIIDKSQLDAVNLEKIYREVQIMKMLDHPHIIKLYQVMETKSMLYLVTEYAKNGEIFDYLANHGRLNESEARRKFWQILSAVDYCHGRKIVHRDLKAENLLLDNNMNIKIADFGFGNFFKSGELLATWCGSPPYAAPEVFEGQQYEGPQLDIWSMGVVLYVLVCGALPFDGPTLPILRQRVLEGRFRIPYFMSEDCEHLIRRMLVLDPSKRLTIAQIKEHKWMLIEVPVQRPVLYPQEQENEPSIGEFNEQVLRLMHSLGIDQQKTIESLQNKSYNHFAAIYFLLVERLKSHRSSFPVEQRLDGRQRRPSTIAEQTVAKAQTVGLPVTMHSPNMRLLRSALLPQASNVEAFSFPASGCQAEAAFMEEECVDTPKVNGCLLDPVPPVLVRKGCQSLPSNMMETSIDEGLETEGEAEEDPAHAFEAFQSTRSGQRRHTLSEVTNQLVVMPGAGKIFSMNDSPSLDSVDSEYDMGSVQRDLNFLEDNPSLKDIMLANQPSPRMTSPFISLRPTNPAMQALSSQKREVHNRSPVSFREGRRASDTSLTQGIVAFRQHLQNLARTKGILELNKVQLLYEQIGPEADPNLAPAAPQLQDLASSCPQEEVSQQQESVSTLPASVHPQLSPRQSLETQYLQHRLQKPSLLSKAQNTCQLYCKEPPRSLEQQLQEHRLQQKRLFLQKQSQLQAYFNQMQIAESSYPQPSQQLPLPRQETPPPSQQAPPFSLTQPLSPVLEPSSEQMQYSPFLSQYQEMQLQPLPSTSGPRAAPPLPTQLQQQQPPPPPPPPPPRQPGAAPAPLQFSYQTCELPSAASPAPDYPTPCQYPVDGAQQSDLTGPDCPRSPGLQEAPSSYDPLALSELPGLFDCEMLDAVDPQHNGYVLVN
- measurement-conditions: at 0.1 µM
- Description: GSK_PKIS: SNF1LK2 (QIK) mean inhibition at 0.1 uM [Nanosyn]
For each entry below, report its inhibition value.
Give the value, in units of %, as a plain number.

Param item = CN(C)c1cc2c(Nc3ccc4c(cnn4Cc4ccccc4)c3)ncnc2cn1 ; retrieve measured inhibition.
2.41

Param item = Nc1nccc(-c2c(-c3ccc(F)cc3)ncn2CCCN2CCOCC2)n1 ; retrieve measured inhibition.
7.84

Param item = O=C(Nc1ccc(Oc2ccc3[nH]c(NC(=O)c4ccco4)nc3c2)cc1)Nc1cc(C(F)(F)F)ccc1F ; retrieve measured inhibition.
-4.88

Param item = NC(=O)c1sc(-n2cnc3ccccc32)cc1OCc1ccccc1Br ; retrieve measured inhibition.
3.55

Param item = c1ccc(Cc2nc3ccc(Nc4ncnc5ccccc45)cc3[nH]2)cc1 ; retrieve measured inhibition.
2.47

Param item = Nc1nccc(C#Cc2cncnc2Nc2ccc(OCc3cccc(F)c3)c(Cl)c2)n1 ; retrieve measured inhibition.
5.11

Param item = NC(=O)c1cccc(Nc2nccc(Nc3cccc(F)c3)n2)c1 ; retrieve measured inhibition.
7.47

Param item = Cc1ccc(Nc2ccnc(Nc3cccc(C(N)=O)c3)n2)cc1O ; retrieve measured inhibition.
13.1

Param item = CCn1c(-c2nonc2N)nc2c(C#CC(C)(C)O)nc(OCCNC)cc21 ; retrieve measured inhibition.
3.14

Param item = c1ccc(Nc2ncc(-c3ccccc3)o2)cc1 ; retrieve measured inhibition.
7.32

Param item = Nc1ccc(C#Cc2cncnc2Nc2ccc(OCc3cccc(F)c3)c(Cl)c2)cc1 ; retrieve measured inhibition.
-0.99

Param item = COc1cc2ncnc(Nc3ccc4c(cnn4Cc4ccccc4)c3)c2cc1OC ; retrieve measured inhibition.
4.37

Param item = CCn1c(-c2nonc2N)nc2ccc(F)cc21 ; retrieve measured inhibition.
7.14

Param item = CN(C)C(=O)O[C@@H]1CN[C@@H](C#Cc2cc3ncnc(Nc4ccc(OCc5cccc(F)c5)c(Cl)c4)c3s2)C1 ; retrieve measured inhibition.
-0.41

Param item = COc1cc(/C=N/Nc2ncnc3c2cnn3C(C)C)ccc1O ; retrieve measured inhibition.
2.78

Param item = CCS(=O)(=O)c1ccc(OC)c(Nc2ncc(-c3cccc(OC)c3)o2)c1 ; retrieve measured inhibition.
8.33

Param item = Cc1ccc2c(-c3ccnc(Nc4ccc5c(c4)OCCO5)n3)c(-c3ccc(C(F)(F)F)cc3)nn2n1 ; retrieve measured inhibition.
10.8

Param item = Cc1ccc(C(=O)NC2CC2)cc1-c1ccc2[nH]ncc2c1 ; retrieve measured inhibition.
-3.95

Param item = NS(=O)(=O)c1cccc(Nc2cc(-c3ccc(F)cc3)n[nH]2)c1 ; retrieve measured inhibition.
11.7

Param item = Cc1ccc2c(-c3ccnc(Nc4cccc(C(F)(F)F)c4)n3)c(-c3ccccc3)nn2n1 ; retrieve measured inhibition.
1.03

Param item = N#Cc1c(NC(=O)c2ccccc2F)sc2c1CCCC2 ; retrieve measured inhibition.
-2.07

Param item = NS(=O)(=O)c1ccc(-c2cc3ccncc3cc2OCc2ccccc2)cc1 ; retrieve measured inhibition.
6.46

Param item = NS(=O)(=O)c1ccc(NC=C2C(=O)Nc3ccc4ncsc4c32)cc1 ; retrieve measured inhibition.
9.07

Param item = [O-][S+]1CCN(Cc2ccc(-c3ccc4ncnc(Nc5ccc(OCc6ccccc6)c(Cl)c5)c4c3)o2)CC1 ; retrieve measured inhibition.
1.44

Param item = Cc1cc(Cl)cc2c1NC(=O)C2=NNc1ccc(S(N)(=O)=O)cc1 ; retrieve measured inhibition.
5.46

Param item = Cc1cc(O)cc(C)c1/C=C/c1cncc(C(=O)N(C)C)c1 ; retrieve measured inhibition.
4.34

Param item = CN(C)C(=O)O[C@H]1CN[C@H](C#Cc2cc3ncnc(Nc4ccc(OCc5cccc(F)c5)c(Cl)c4)c3s2)C1 ; retrieve measured inhibition.
11.5

Param item = COc1ccc2ncnc(Nc3ccc(OCc4ccccc4)cc3)c2c1 ; retrieve measured inhibition.
3.18

Param item = Cc1nc(-c2ccccc2)n2nc(NCCCN3CCOCC3)ncc12 ; retrieve measured inhibition.
-0.49

Param item = COc1cc(Nc2nccc(-c3cnn4ncccc34)n2)cc(OC)c1 ; retrieve measured inhibition.
3.15

Param item = CN1CCN(C(=O)c2ccc(NC(=O)Nc3ccc(N(C)c4ccnc(Nc5ccc(CS(C)(=O)=O)cc5)n4)cc3)cc2)CC1 ; retrieve measured inhibition.
-0.55

Param item = Cc1ccc(O)cc1Nc1ccnc2ccc(S(C)(=O)=O)cc12 ; retrieve measured inhibition.
15.8

Param item = CC(C)c1ccc(Nc2nccc(-c3cnn4ncccc34)n2)cc1 ; retrieve measured inhibition.
2.73

Param item = Cc1ccc2c(c1)/C(=N/Nc1ccc(S(N)(=O)=O)cc1)C(=O)N2 ; retrieve measured inhibition.
-5.87

Param item = NS(=O)(=O)c1ccc(Nc2cc(-c3cccc(O)c3)n[nH]2)cc1 ; retrieve measured inhibition.
6.19

Param item = CS(=O)(=O)Nc1cccc(-c2ccc3c(NC(=O)C4CC4)n[nH]c3c2)c1 ; retrieve measured inhibition.
-2.65
